Source listed as ChEMBL document CHEMBL2396607.

target: Phosphatidylinositol 4,5-bisphosphate 3-kinase catalytic subunit beta isoform (Homo sapiens); experiment: Inhibition of N-terminal myristoylated P110beta (unknown origin)-mediated AKT phosphorylation at Ser473 expressed in rat Rat1 cells by ELISA; assay type: cell-based
MEASURE_NAME: IC50

Known results for compounds:
>  <SMILES_STRING>
Cc1nc(NC(=O)N2CCC[C@H]2C(N)=O)sc1-c1cc(C(C)C)ncn1

>  <IC50>
> 10 µM

$$$$
>  <SMILES_STRING>
CNC(=O)[C@@H]1CCCN1C(=O)Nc1nc(C)c(-c2ccnc(C(C)(C)C)c2)s1

>  <IC50>
> 10 µM

$$$$
>  <SMILES_STRING>
Cc1nc(NC(=O)N2CCC[C@H]2C(N)=O)sc1-c1ccnc(C2(C#N)CC2)c1

>  <IC50>
> 10 µM

$$$$

[in] Returns the measured IC50 for the input compound. Input: "Cc1nc(NC(=O)N2CCCC2)sc1-c1ccnc(C(C)(C)C)c1"
[out] > 10 µM

[in] Returns the measured IC50 for the input compound. Input: "CC(C)(c1cc(-c2sc(NC(=O)N3CCC[C@H]3C(N)=O)nc2Cl)ccn1)C(F)(F)F"
[out] > 10 µM

###

target: Phosphatidylinositol 4,5-bisphosphate 3-kinase catalytic subunit gamma isoform (Homo sapiens); test: Inhibition of P110gamma (unknown origin) using PIP2:PS as substrate by TR-FRET assay
Sequence (P48736 whole entry, canonical isoform): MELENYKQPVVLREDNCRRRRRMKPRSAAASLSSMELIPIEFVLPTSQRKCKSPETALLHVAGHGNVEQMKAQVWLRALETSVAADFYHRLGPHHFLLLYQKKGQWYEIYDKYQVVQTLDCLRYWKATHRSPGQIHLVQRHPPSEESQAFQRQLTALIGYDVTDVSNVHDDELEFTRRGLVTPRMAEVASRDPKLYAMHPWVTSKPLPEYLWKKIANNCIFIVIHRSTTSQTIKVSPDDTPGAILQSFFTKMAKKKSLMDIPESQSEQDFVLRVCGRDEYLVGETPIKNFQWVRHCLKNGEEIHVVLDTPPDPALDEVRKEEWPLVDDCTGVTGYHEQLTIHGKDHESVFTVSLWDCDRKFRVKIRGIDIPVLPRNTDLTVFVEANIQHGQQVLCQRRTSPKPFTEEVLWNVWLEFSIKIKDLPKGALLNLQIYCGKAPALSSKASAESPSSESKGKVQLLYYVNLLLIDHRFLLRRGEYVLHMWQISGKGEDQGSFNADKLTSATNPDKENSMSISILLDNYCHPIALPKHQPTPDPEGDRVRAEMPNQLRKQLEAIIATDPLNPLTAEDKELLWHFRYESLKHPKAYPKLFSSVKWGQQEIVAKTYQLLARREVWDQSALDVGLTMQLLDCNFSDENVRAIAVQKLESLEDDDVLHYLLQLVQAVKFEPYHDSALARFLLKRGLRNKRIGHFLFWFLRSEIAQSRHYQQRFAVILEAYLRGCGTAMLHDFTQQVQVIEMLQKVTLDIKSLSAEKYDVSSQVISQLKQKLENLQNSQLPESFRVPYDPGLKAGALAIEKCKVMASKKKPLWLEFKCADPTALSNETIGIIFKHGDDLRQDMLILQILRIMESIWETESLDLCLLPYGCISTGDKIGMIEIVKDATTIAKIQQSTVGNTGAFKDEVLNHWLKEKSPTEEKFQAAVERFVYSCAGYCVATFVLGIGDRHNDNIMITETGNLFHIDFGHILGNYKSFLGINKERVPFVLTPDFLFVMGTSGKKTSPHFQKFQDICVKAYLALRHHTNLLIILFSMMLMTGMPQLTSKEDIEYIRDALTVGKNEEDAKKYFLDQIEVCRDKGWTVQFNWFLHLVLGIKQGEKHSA
MEASURE_NAME: IC50 (µM)

Known results for molecules:
>  <SMILES_STRING>
Cc1nc(NC(=O)N2CCCC2)sc1-c1ccnc(C(C)(C)C)c1

>  <ASSAY_VALUE>
0.93

$$$$
>  <SMILES_STRING>
CC(C)(c1cc(-c2sc(NC(=O)N3CCC[C@H]3C(N)=O)nc2Cl)ccn1)C(F)(F)F

>  <ASSAY_VALUE>
1.4

$$$$
>  <SMILES_STRING>
Cc1nc(NC(=O)N2CCC[C@H]2C(N)=O)sc1-c1ccnc(C2(C)CC2)n1

>  <ASSAY_VALUE>
0.69

$$$$
>  <SMILES_STRING>
Cc1nc(NC(=O)N2CCC[C@H]2C(N)=O)sc1-c1ccnc(C2(C#N)CC2)c1

>  <ASSAY_VALUE>
1.1

$$$$

a = CC(C)(c1cc(-c2cnc(NC(=O)N3CCC[C@H]3C(N)=O)s2)ccn1)C(F)(F)F
b = Cc1nc(NC(=O)N2CCC[C@H]2C(N)=O)sc1-c1ccnc(C(C)C)n1
[in] a or b : whose IC50 is greater? Give the label under which the chosen entry appears.
[out] b
(b: 1.4 µM, a: 0.83 µM)

###

target: Phosphatidylinositol 4,5-bisphosphate 3-kinase catalytic subunit delta isoform (Homo sapiens, UniProt O00329); assay: Inhibition of N-terminal myristoylated P110delta (unknown origin)-mediated AKT phosphorylation at Ser473 expressed in rat Rat1 cells by ELISA; format: cell-based
Sequence (O00329 whole entry, canonical isoform): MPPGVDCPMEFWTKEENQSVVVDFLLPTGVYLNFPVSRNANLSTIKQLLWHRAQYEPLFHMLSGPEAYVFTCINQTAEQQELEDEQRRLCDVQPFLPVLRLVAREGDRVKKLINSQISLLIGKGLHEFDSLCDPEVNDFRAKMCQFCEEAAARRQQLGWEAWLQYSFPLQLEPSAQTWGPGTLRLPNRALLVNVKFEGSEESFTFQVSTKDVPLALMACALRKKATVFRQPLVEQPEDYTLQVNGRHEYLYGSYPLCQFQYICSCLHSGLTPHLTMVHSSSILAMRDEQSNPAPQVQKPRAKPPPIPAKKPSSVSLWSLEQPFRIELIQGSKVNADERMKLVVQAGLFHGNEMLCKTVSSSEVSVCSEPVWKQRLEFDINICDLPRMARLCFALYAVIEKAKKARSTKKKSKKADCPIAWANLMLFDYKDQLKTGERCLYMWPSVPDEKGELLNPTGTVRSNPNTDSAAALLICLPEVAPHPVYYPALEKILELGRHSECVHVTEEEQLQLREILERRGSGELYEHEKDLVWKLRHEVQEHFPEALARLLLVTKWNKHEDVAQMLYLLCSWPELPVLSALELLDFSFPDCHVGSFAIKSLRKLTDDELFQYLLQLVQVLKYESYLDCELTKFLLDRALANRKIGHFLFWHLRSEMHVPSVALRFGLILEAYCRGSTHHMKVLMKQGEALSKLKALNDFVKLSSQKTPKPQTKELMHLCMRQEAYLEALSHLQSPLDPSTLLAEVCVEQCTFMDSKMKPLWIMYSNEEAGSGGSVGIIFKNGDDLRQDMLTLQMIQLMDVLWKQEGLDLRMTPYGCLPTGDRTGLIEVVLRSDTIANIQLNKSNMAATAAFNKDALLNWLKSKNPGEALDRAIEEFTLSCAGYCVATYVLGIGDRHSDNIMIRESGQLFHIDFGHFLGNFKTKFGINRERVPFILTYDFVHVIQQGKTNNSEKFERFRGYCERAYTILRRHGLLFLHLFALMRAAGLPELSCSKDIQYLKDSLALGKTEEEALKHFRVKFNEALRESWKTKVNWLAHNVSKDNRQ
MEASURE_NAME: IC50

Known results for compounds:
>  <SMILES_STRING>
Cc1nc(NC(=O)N2CCC[C@H]2C(N)=O)sc1-c1cc(C(C)C)ncn1

>  <IC50>
> 10 µM

$$$$
>  <SMILES_STRING>
Cc1nc(NC(=O)N2CCC[C@H]2C(N)=O)sc1-c1ccnc(C2CCC2)n1

>  <IC50>
> 10 µM

$$$$

Consider the additional compound presented here.
[in] Returns the measured IC50 for the input compound. Input: "Cc1nc(NC(=O)N2CCC[C@H]2C(N)=O)sc1-c1ccnc(C2(C#N)CC2)c1"
[out] > 10 µM

###

target: Phosphatidylinositol 4,5-bisphosphate 3-kinase catalytic subunit beta isoform (Homo sapiens, UniProt P42338); assay: Inhibition of N-terminal myristoylated P110beta (unknown origin)-mediated AKT phosphorylation at Ser473 expressed in rat Rat1 cells by ELISA; assay type: cell-based
Sequence (P42338 whole entry, canonical isoform): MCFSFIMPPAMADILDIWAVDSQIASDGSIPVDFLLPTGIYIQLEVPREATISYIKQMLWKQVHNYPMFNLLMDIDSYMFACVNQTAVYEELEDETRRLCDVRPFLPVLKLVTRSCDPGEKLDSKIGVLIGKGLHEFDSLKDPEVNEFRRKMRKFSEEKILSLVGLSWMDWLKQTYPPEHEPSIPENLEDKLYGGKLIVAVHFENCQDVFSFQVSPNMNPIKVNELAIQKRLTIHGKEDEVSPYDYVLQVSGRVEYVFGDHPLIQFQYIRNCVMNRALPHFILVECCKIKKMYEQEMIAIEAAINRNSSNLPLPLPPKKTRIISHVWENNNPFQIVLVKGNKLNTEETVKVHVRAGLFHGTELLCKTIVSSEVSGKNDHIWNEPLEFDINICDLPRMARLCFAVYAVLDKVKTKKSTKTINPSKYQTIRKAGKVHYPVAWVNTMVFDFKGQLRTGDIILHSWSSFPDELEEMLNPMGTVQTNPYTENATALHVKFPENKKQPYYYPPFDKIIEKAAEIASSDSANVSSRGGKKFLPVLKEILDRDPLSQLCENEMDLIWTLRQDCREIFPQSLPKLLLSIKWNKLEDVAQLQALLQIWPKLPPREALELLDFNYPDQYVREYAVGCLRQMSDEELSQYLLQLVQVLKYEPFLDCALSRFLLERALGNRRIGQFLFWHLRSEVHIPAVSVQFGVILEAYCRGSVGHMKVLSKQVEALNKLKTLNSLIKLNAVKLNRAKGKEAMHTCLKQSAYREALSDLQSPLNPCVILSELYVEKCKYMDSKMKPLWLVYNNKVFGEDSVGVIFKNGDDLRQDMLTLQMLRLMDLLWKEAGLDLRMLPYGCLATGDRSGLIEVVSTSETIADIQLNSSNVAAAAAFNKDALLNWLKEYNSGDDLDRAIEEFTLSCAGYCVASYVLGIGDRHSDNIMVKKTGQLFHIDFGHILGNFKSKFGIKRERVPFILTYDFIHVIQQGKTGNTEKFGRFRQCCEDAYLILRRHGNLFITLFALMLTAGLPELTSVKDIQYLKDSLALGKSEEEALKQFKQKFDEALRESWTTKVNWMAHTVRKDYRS
MEASURE_NAME: IC50 (µM)

>  <SMILES_STRING>
Cc1nc(NC(=O)N2CCC[C@H]2C(N)=O)sc1-c1ccnc(C2CCC2)n1

>  <MEASURE_NAME>
IC50

>  <ASSAY_VALUE>
7.3

$$$$

1 = Cc1nc(NC(=O)N2CCC[C@H]2C(N)=O)sc1-c1ccnc(C(C)C)n1
2 = CC(C)(c1cc(-c2cnc(NC(=O)N3CCC[C@H]3C(N)=O)s2)ccn1)C(F)(F)F
[in] 1 or 2 : whose IC50 is greater? Give the label under which the chosen entry appears.
[out] 1
(1: 5.9 µM, 2: 2.4 µM)
